procedure.text: Odorant vapor pressure and odorant-hydrogen phase equilibrium (Raoult's Law)
condition.notes: @ 6000 psi, 25° C.
Listed here are molecules together with their documented Saturated Odorant Concentration yA.
Report only the number, with the unit ppm understood.

CN(C)C :: 5172
CCCN :: 999

--- query ---
Request: // Input: `CC(C)(C)S` . Output its Saturated Odorant Concentration yA only.
Response: 583
